Where do these numbers come from? They come from ChEMBL document CHEMBL1140651.

Items are presented alongside their recorded solubility.
test: Solubility of the compound; assay type: physicochemical
Include the unit right after the number.

Sample records with solubility:
COCCCN(c1c(Cl)c(Cl)cc2[nH]c(=O)c(=O)[nH]c12)S(C)(=O)=O :: 79 µg/mL
COCCCN(c1cc(Cl)cc2[nH]c(=O)c(=O)[nH]c12)S(C)(=O)=O :: 72 µg/mL
CS(=O)(=O)N(CC1CCCCO1)c1c(Cl)c(Cl)cc2[nH]c(=O)c(=O)[nH]c12 (stereo unspecified) :: 25 µg/mL
COc1cccc(CN(c2c(Cl)c(Cl)cc3[nH]c(=O)c(=O)[nH]c23)S(C)(=O)=O)c1 :: 40 µg/mL
COCCN(c1c(C)c(Cl)cc2[nH]c(=O)c(=O)[nH]c12)S(C)(=O)=O :: 72 µg/mL
Cc1c(Cl)cc2[nH]c(=O)c(=O)[nH]c2c1N(CCO)S(C)(=O)=O :: 70 µg/mL
COCCN(c1c(Cl)c(C)cc2[nH]c(=O)c(=O)[nH]c12)S(C)(=O)=O :: 72 µg/mL
CS(=O)(=O)N(Cc1cccc(F)c1)c1c(Cl)c(Cl)cc2[nH]c(=O)c(=O)[nH]c12 :: 23 µg/mL
CS(=O)(=O)N(CC(=O)O)c1c(Cl)c(Cl)cc2[nH]c(=O)c(=O)[nH]c12 :: 76 µg/mL
CCc1c(Cl)cc2[nH]c(=O)c(=O)[nH]c2c1N(CCO)S(C)(=O)=O :: 72 µg/mL

As a next step, examine the compound that follows.
solubility recorded for this compound, CC(O)CN(c1c(Cl)c(Cl)cc2[nH]c(=O)c(=O)[nH]c12)S(C)(=O)=O (stereo unspecified) , is 76 µg/mL

====

target: Glutamate receptor ionotropic, NMDA 1 (Homo sapiens, UniProt Q05586); assay: Antagonist activity at human NMDA NR1 receptor
Items are presented alongside their recorded pIC50.
The meaning of pIC50 here: minus log10 of the concentration in molar units.

CCc1c(Cl)cc2[nH]c(=O)c(=O)[nH]c2c1N(CCO)S(C)(=O)=O :: 7.24

`CCOCCN(c1c(Cl)c(Cl)cc2[nH]c(=O)c(=O)[nH]c12)S(C)(=O)=O` tested on Glutamate receptor ionotropic, NMDA 1 (Homo sapiens, UniProt Q05586) gave pIC50: 6.68

`CS(=O)(=O)N(CC(=O)O)c1c(Cl)c(Cl)cc2[nH]c(=O)c(=O)[nH]c12` tested on Glutamate receptor ionotropic, NMDA 1 (Homo sapiens, UniProt Q05586) gave pIC50: 8.70

`CCc1cc2[nH]c(=O)c(=O)[nH]c2c(N(CCCOC)S(C)(=O)=O)c1Cl` tested on Glutamate receptor ionotropic, NMDA 1 (Homo sapiens, UniProt Q05586) gave pIC50: 7.31

====

experiment: Bioavailability in Sprague-Dawley rat at 5 mg/kg, po; format: ADME, organism-based; settings: Sprague-Dawley, in vivo
Entries are sorted into classes by bioavailability as follows: A: < 30%; B: ≥ 30% and < 50%; C: ≥ 50%

As a guide, the following entries are already answered.
CS(=O)(=O)N(CC1CCCCO1)c1c(Cl)c(Cl)cc2[nH]c(=O)c(=O)[nH]c12 (stereo unspecified) :: C
CCS(=O)(=O)N(CCC(F)(F)F)c1c(Cl)c(Cl)cc2[nH]c(=O)c(=O)[nH]c12 :: B
Cc1cc2[nH]c(=O)c(=O)[nH]c2c(N(CCO)S(C)(=O)=O)c1Cl :: A
CS(=O)(=O)N(CCCO)c1c(Cl)c(Cl)cc2[nH]c(=O)c(=O)[nH]c12 :: A
COCCN(c1c(Cl)c(C)cc2[nH]c(=O)c(=O)[nH]c12)S(C)(=O)=O :: C

Pending compound:
[in] Band for `COc1cccc(CN(c2c(Cl)c(Cl)cc3[nH]c(=O)c(=O)[nH]c23)S(C)(=O)=O)c1` ?
[out] A

====

assay: Permeability from apical to basolateral side of the Caco-2 cell membrane; assay type: ADME, cell-based; conditions: human, read-out: permeability
Items are presented alongside their recorded Papp A→B.
Give the value, in units of ×10⁻⁶ cm/s, as a plain number.

Sample records with Papp A→B:
CS(=O)(=O)N(CC1CCCO1)c1c(Cl)c(Cl)cc2[nH]c(=O)c(=O)[nH]c12 (centres undefined) :: 1.52
CS(=O)(=O)N(Cc1cccc(F)c1)c1c(Cl)c(Cl)cc2[nH]c(=O)c(=O)[nH]c12 :: 1.75
CCc1cc2[nH]c(=O)c(=O)[nH]c2c(N(CCCOC)S(C)(=O)=O)c1Cl :: 0.01
CCOCCCN(c1c(Cl)c(Cl)cc2[nH]c(=O)c(=O)[nH]c12)S(C)(=O)=O :: 0.44
COCCN(c1c(Cl)c(Cl)cc2[nH]c(=O)c(=O)[nH]c12)S(C)(=O)=O :: 0.01
COCCCN(c1c(Cl)c(Cl)cc2[nH]c(=O)c(=O)[nH]c12)S(C)(=O)=O :: 2.06
CS(=O)(=O)N(CCC(F)(F)F)c1c(Cl)c(Cl)cc2[nH]c(=O)c(=O)[nH]c12 :: 0.41

As a next step, examine the compound that follows.
Papp A→B recorded for this compound, `COCCN(c1c(C)c(Cl)cc2[nH]c(=O)c(=O)[nH]c12)S(C)(=O)=O` , is 0.01

====

Items are presented alongside their recorded bioavailability.
assay: Bioavailability in Sprague-Dawley rat at 5 mg/kg, po; assay type: ADME, organism-based; details: Sprague-Dawley, in vivo
Give the value, in units of %, as a plain number.

CCOCCCN(c1c(Cl)c(Cl)cc2[nH]c(=O)c(=O)[nH]c12)S(C)(=O)=O :: 33
COCCN(c1c(C)c(Cl)cc2[nH]c(=O)c(=O)[nH]c12)S(C)(=O)=O :: 100
COCCN(c1c(Cl)c(Cl)cc2[nH]c(=O)c(=O)[nH]c12)S(C)(=O)=O :: 33
COCCCN(c1c(Cl)c(Cl)cc2[nH]c(=O)c(=O)[nH]c12)S(C)(=O)=O :: 41

As a next step, examine the compound that follows.
bioavailability recorded for this compound, `CCc1cc2[nH]c(=O)c(=O)[nH]c2c(N(CCCOC)S(C)(=O)=O)c1Cl` , is 47
